- method-notes: Cytotoxicity against human HCT116 cells assessed as growth level at 10 uM after 48 hrs by SRB assay
- Format: functional, HCT-116
Binary label based on Activity with cut-off 40%: below gives satisfied, not below gives not satisfied.

1) C=C1CC[C@@H]2[C@](C)(COC(C)=O)[C@H](OC(C)=O)CC[C@@]2(C)[C@@H]1CC(NCCCC)C1=CCOC1=O (mixture of isomers) :: not satisfied
2) C=C1CC[C@@H]2[C@](C)(CO)[C@H](O)CC[C@@]2(C)[C@@H]1C/C=C1/C(=O)OC[C@H]1O [ANDROGRAPHOLIDE] :: not satisfied
3) C=C1CC[C@@H]2[C@](C)(COC(C)=O)[C@H](OC(C)=O)CC[C@@]2(C)[C@@H]1CC(NCc1ccccc1)C1=CCOC1=O (mixture of isomers) :: not satisfied
4) C=C1CC[C@@H]2[C@](C)(COC(C)=O)[C@H](OC(C)=O)CC[C@@]2(C)[C@@H]1CC(NCCCCCCCC)C1=CCOC1=O (mixture of isomers) :: satisfied
5) C=C1CC[C@@H]2[C@](C)(COC(C)=O)[C@H](OC(C)=O)CC[C@@]2(C)[C@@H]1CC(NCc1ccc(F)cc1)C1=CCOC1=O (mixture of isomers) :: satisfied

Data request: Dear colleague, could you confirm whether Activity of C=C1CC[C@@H]2[C@](C)(COC(C)=O)[C@H](OC(C)=O)CC[C@@]2(C)[C@@H]1CC(Nc1ccc(S(=O)(=O)NC(C)=O)cc1)C1=CCOC1=O (mixture of isomers) falls below 40%? Thanks.
Data returned: satisfied

Data request: Dear colleague, could you confirm whether Activity of C=C1CC[C@@H]2[C@](C)(COC(C)=O)[C@H](OC(C)=O)CC[C@@]2(C)[C@@H]1CC(NC1CCCC1)C1=CCOC1=O (some centres undefined) falls below 40%? Thanks.
Data returned: not satisfied

Data request: Dear colleague, could you confirm whether Activity of `C=C1CC[C@@H]2[C@](C)(COC(C)=O)[C@H](OC(C)=O)CC[C@@]2(C)[C@@H]1C/C=C1/C(=O)OC[C@H]1OC(C)=O` falls below 40%? Thanks.
Data returned: satisfied

Data request: Dear colleague, could you confirm whether Activity of C=C1CC[C@@H]2[C@](C)(COC(C)=O)[C@H](OC(C)=O)CC[C@@]2(C)[C@@H]1CC(Sc1ccccc1)C1=CCOC1=O (mixture of isomers) falls below 40%? Thanks.
Data returned: satisfied
